# experimentalSystem: Growth hormone secretagogue receptor type 1 (Homo sapiens)
# Sequence (Q92847 whole entry): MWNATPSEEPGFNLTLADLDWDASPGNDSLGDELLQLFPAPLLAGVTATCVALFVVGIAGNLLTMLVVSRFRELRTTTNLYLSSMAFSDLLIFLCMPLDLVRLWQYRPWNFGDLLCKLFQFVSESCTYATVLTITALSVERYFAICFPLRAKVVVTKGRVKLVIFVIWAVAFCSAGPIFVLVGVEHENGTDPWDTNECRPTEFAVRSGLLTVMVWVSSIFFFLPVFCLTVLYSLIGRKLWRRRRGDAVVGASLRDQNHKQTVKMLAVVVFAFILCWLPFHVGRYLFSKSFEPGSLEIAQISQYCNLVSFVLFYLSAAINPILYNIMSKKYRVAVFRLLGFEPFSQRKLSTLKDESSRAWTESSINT
# measurementProtocol: Inhibition of ghrelin binding to Growth hormone secretagogue receptor expressed in BHK cells
valueKind: log10(IC50) (log10 of the value in µM)
# log10 transformed; quantity=IC50; unit=µM

These recorded examples may help you get a feel for the data.
[[record]]
smilesentry = "O=C1[C@H](CCc2ccccc2)N(Cc2ccc(-c3ccccc3-c3nn[nH]n3)cc2F)C(=O)N1CCCN1CCCCC1"
numericvalue = 0.20

[[record]]
smilesentry = "O=C1[C@H](Cc2c[nH]c3ccccc23)N(Cc2ccc(-c3ccccc3-c3nn[nH]n3)cc2)C(=O)N1C1CCNCC1"
numericvalue = 1.70

[[record]]
smilesentry = "O=C1[C@H](CCc2ccccc2)N(Cc2ccc(-c3ccccc3-c3nn[nH]n3)s2)C(=O)N1CCCN1CCCCC1"
numericvalue = 1.18


Now examine the next entry.
## Input Find log10(IC50) for "O=C1[C@H](CCc2ccccc2)N(Cc2ccc(-c3ccccc3-c3nn[nH]n3)cc2)C(=S)N1CCCN1CCOCC1" on Growth hormone secretagogue receptor type 1 (Homo sapiens) and write it down.
## Output 1.65
